Taken from patent US10287267B2.

EC50 reference
test system: Wnt pathway (Sp5-Luc reporter, TCF/LEF binding sites) in SW480 colon carcinoma cells; assay: Screening assay for Wnt activity: Sp5-Luc reporter gene assay; type: cell-based, human; details: Homo sapiens; Sp5-Luc reporter, SW480 cells, 36 to 48 hours
Just the number in nM, nothing appended.

Some compounds with known EC50 results, for comparison:
> print(dat)
                                   compound  reading
1  Cn1cc(-c2ccc3cnc(NC(=O)C4CCC(F)(F)CC4)cc3c2)cn1 [Compound 3]     1700
2  Cc1nnc(-c2ccc3cnc(NC(=O)CN4C[C@H]5C[C@@H]4CO5)cc3c2)s1 [Compound 960]     1660
3  CC(C)CN1CCC(C(=O)Nc2cc3cc(-c4cnn(C)c4CN4CCCCC4)ccc3cn2)CC1 [Compound 822]      517

Q. Observed EC50 on Wnt pathway (Sp5-Luc reporter, TCF/LEF binding sites) in SW480 colon carcinoma cells for Cn1cc(-c2ccc3cnc(NC(=O)C4C(C)(C)C4(C)C)cc3c2)nn1 [Compound 277] , please.
A. 5260

###

molecular target: recombinant DYRK1A kinase (Homo sapiens (Human), UniProt Q13627); assay: DYRK1A kinase assay (Ser/Thr 18 peptide Z-lyte FRET); conditions: 30 μM ATP, 1 h room temperature;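 note: Read-out is the coumarin to fluorescein emission ratio, referenced to unphosphorylated (0%) and phosphorylated (100%) Ser/Thr 18 peptide controls, values from dose-response curves by non-linear regression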
Decision: EC50 beneath 3 nM gives Met; EC50 meeting or exceeding 3 nM gives Not met.

See these solved cases before continuing.
> print(dat)
                            compound.string                             target.entity  category
1  CNc1ncc(-c2ccc3cnc(NC(=O)C4CCN(C)CC4)cc3c2)s1  recombinant DYRK1A kinase (Homo sapiens (Human), UniProt Q13627)   Not met
2  Cn1cc(-c2ccc3cnc(NC(=O)C4CCN(Cc5ncco5)CC4)cc3c2)cn1  recombinant DYRK1A kinase (Homo sapiens (Human), UniProt Q13627)       Met
3  CC(C)CN1CCN(CC(=O)Nc2cc3cc(-c4cnn(C)c4)ccc3cn2)CC1  recombinant DYRK1A kinase (Homo sapiens (Human), UniProt Q13627)   Not met
4  CO[C@H]1CC[C@H](C(=O)Nc2cc3cc(-c4cnn(C)c4)ccc3cn2)CC1  recombinant DYRK1A kinase (Homo sapiens (Human), UniProt Q13627)       Met

Q. Given the entry Cn1cc(-c2ccc3cnc(NC(=O)CN4CC(C)(C)C4)cc3c2)cn1 , would its reported EC50 be below 3 nM?
A. Not met

Q. Given the entry O=C(Nc1cc2cc(-c3cnco3)ccc2cn1)C1CC1 , would its reported EC50 be below 3 nM?
A. Met

Q. Given the entry C[C@@H]1CCCN1CC(=O)Nc1cc2cc(-c3cnn(C)c3)ccc2cn1 , would its reported EC50 be below 3 nM?
A. Not met

Q. Given the entry CC(C)CN1CCC(C(=O)Nc2cc3cc(-c4cn[nH]c4)ccc3cn2)CC1 , would its reported EC50 be below 3 nM?
A. Met

Q. Given the entry Cc1nnc(-c2ccc3cnc(NC(=O)CN4CCCC4)cc3c2)s1 , would its reported EC50 be below 3 nM?
A. Not met

###

pEC50 reference
molecular target: recombinant GSK3β kinase (Homo sapiens (Human), UniProt P49841); test: GSK3β kinase assay (Ser/Thr 09 peptide Z-lyte FRET); conditions: 46 μM ATP, 1 h room temperature
Sequence (P49841 whole entry): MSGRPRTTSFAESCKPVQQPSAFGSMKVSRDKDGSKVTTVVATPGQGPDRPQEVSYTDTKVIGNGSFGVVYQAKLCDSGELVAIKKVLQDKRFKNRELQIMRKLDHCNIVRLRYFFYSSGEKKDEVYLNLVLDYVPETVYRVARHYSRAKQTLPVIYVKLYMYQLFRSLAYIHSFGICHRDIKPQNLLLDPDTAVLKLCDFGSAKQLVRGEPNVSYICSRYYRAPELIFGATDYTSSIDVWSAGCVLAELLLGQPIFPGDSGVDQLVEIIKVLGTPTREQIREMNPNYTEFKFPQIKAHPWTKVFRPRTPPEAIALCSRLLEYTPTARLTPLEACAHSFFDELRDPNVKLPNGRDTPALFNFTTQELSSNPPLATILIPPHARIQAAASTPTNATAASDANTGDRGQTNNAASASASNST
Bear in mind: pEC50 is minus log10 of a mol/L concentration; give just that figure.

> print(dat)
                                   compound  reading
1  CN1CCOC(CC(=O)Nc2cc3cc(-c4cnn(C)c4)ccc3cn2)C1 (stereo not drawn)     7.48
2  Cn1cc(-c2ccc3cnc(NC(=O)C4CCC(F)(F)CC4)cc3c2)cn1     7.42
3  Cn1cc(-c2ccc3cnc(NC(=O)CN4CCN(CCF)CC4)cc3c2)cn1     7.43
4  CN1CCn2c(-c3ccc4cnc(NC(=O)C5CC5)cc4c3)cnc2C1     7.42
5       O=C(Nc1cc2cc(-c3cnco3)ccc2cn1)C1CC1     7.70
6  O=C(Nc1cc2cc(-c3cncs3)ccc2cn1)C1CCN(C(=O)CN2CCCC2)CC1     6.97

Q. Look up pEC50: O=C(Nc1cc2cc(-c3cnco3)ccc2cn1)[C@H]1CCCO1
A. 7.02

Q. Look up pEC50: Cc1nnc(-c2ccc3cnc(NC(=O)CN4CC5CCC(C4)O5)cc3c2)s1
A. 7.74

Q. Look up pEC50: Cn1cc(-c2ccc3cnc(NC(=O)[C@H]4CCCNC4)cc3c2)cn1
A. 7.47

###

test system: Wnt pathway (Sp5-Luc reporter, TCF/LEF binding sites) in SW480 colon carcinoma cells; assay: Screening assay for Wnt activity: Sp5-Luc reporter gene assay; assay type: cell-based, human; details: Homo sapiens; Sp5-Luc reporter, SW480 cells, 36 to 48 hours;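 note: firefly luciferase luminescence read in stably transduced SW480 cells carrying the Sp5 promoter reporter with eight TCF/LEF sites, compounds given in 0.1% DMSO final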
log10 of EC50 reference
In plain terms, each number is the log10 of measured EC50 in nM.

Some compounds with known log10 of EC50 results, for comparison:
> print(dat)
                                   compound  reading
1  Cn1cc(-c2ccc3cnc(NC(=O)[C@H]4CC[C@H](N)CC4)cc3c2)cn1 [Compound 365]     2.58
2  Cn1cc(-c2ccc3cnc(NC(=O)[C@H]4CC[C@H](N5CCOCC5)CC4)cc3c2)cn1 [Compound 6]     3.05
3  CN1CCN(C[C@H]2CC[C@H](C(=O)Nc3cc4cc(-c5cnn(C)c5)ccc4cn3)CC2)CC1 [Compound 14]     2.55
4  O=C(Nc1cc2cc(-c3cnc4n3CCNC4)ccc2cn1)C1CC(F)(F)C1 [Compound 986]     3.14

Q. Look up log10 of EC50: Cn1cc(-c2ccc3cnc(NC(=O)CN4CCN(C5CC5)CC4)cc3c2)cn1 [Compound 353]
A. 3.76

Q. Look up log10 of EC50: [2H]C([2H])([2H])n1cc(-c2ccc3cnc(NC(=O)CN4CCN(C)CC4)cc3c2)cn1 [Compound 1014]
A. 3.37

###

system: SW480 colon carcinoma cells; assay: Cell viability assay (CellTiter-Glo); type: cell-based, human; details: Homo sapiens, SW480; read-out: percent inhibition at 10 μM
inhibition at 10 µM reference
Could you give the number and then its unit, please?

> print(dat)
                            compound.string  reading
1  CC(C)CN1CCC(F)(C(=O)Nc2cc3cc(-c4cnn5c4CN(CCF)CC5)ccc3cn2)CC1    39.9%
2   O=C(CN1CCOCC1)Nc1cc2cc(-c3cncs3)ccc2cn1    48.4%

# context switch: different compound, same inhibition at 10 µM
Q. Observed inhibition at 10 µM on SW480 colon carcinoma cells for CC(C)CN1CCC(F)(C(=O)Nc2cc3cc(-c4cnc5n4CCNC5)ccc3cn2)CC1 , please.
A. 11.6%

###

pEC50 reference
target: recombinant GSK3β kinase (Homo sapiens (Human)); assay: GSK3β kinase assay (Ser/Thr 09 peptide Z-lyte FRET); details: 46 μM ATP, 1 h room temperature
Bear in mind: pEC50 is minus log10 of a mol/L concentration; give just that figure.

Some compounds with known pEC50 results, for comparison:
> print(dat)
                            compound.string  reading
1  Cc1nnc(-c2ccc3cnc(NC(=O)CN4C5CCC4CC5)cc3c2)s1     7.35
2  C[C@@H]1CN(CC(=O)Nc2cc3cc(-c4cnn(C)c4)ccc3cn2)C[C@H](C)O1     6.76
3  Cc1nnc(-c2ccc3cnc(NC(=O)C4CCN(CCF)CC4)cc3c2)s1     7.96
4  CN1CCC(C(=O)Nc2cc3cc(-c4nnc(N(C)C)o4)ccc3cn2)CC1     7.96
5  O=C(Nc1cc2cc(-c3cncs3)ccc2cn1)C1CC(F)(F)C1     7.62
6  C[C@@H]1CCCN1CC(=O)Nc1cc2cc(-c3cnn(C)c3)ccc2cn1     7.21

# context switch: different compound, same pEC50
Q. Look up pEC50: Cc1nnc(-c2ccc3cnc(NC(=O)C4(F)CCCCC4)cc3c2)s1
A. 7.12

###

biological target: recombinant GSK3β kinase (Homo sapiens (Human), UniProt P49841); assay: GSK3β kinase assay (Ser/Thr 09 peptide Z-lyte FRET); details: 46 μM ATP, 1 h room temperature;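 note: kinase activity read as coumarin to fluorescein emission ratio, 11-point threefold dilutions from 10 µM to 0.0003 µM in duplicate, unphosphorylated and phosphorylated peptide as 0% and 100% controls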
observed property: EC50 (nM)
Just the number in nM, nothing appended.

> print(dat)
                            compound.string  units.of.measure  reading
1  Cn1cc(-c2ccc3cnc(NC(=O)C4CCN(C(=O)CN5CCCC5)CC4)cc3c2)nn1                nM       23
2  Cn1cncc1-c1ccc2cnc(NC(=O)C3C(C)(C)C3(C)C)cc2c1                nM     1020
3  Cn1ncc(-c2ccc3cnc(NC(=O)C4CCN(C(=O)c5ccccc5)CC4)cc3c2)c1CN1CCCCC1                nM       10

# context switch: different molecule, same EC50
Q. Look up EC50: CN(CC(=O)Nc1cc2cc(-c3cnc4n3CCNC4)ccc2cn1)C1CCC1
A. 380
